Origin of values: patent US20100120715A1

For each of the compounds below, state its IC50.
system-tested: Class A ESBL SHV-5 (Klebsiella pneumoniae, UniProt P0A3M1)
Construct: made in house; host or cells: E. coli BL21(DE3) for purified enzyme; E. coli cells containing SHV-5 for extracts
Sequence (P0A3M1 22-286): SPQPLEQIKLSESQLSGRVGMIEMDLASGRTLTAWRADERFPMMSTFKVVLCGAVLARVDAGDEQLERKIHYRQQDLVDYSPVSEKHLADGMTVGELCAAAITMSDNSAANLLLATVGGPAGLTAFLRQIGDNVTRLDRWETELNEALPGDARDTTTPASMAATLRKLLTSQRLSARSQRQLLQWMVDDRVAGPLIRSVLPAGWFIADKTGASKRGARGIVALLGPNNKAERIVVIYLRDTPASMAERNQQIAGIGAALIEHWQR
Assay type: biochemical, E. coli
test-context: purified beta-lactamase enzyme (Examples 1 and 31-64); nitrocefin 100 μM, PBS pH 7.0; read-out: SHV-5 IC50 Range

Cl.O=C(Cc1ccncc1)N[C@@H](Cc1cccc(C(=O)O)c1O)B(O)O [Example 52, hydrochloride]
< 10 nM
O=C(Cc1cccs1)N[C@@H](Cc1cccc(C(=O)O)c1O)B(O)O
< 10 nM

Would you mind listing IC50 for each of the following compounds?
1. O=C(N[C@@H](Cc1cccc(C(=O)O)c1O)B(O)O)c1cccnc1
2. O=C(N[C@@H](Cc1cccc(C(=O)O)c1O)B(O)O)c1cnc2ccccc2n1
3. CC(=O)N1CCC(C(=O)N[C@@H](Cc2cccc(C(=O)O)c2O)B(O)O)CC1
4. O=C(N[C@@H](Cc1cccc(C(=O)O)c1O)B(O)O)c1cccc(-n2ccnc2)c1
5. CS(=O)(=O)c1ccc(CC(=O)N[C@@H](Cc2cccc(C(=O)O)c2O)B(O)O)cc1
6. O=C(N[C@@H](Cc1cccc(C(=O)O)c1O)B(O)O)c1ccncc1
7. O=C(N[C@@H](Cc1cccc(C(=O)O)c1O)B(O)O)c1ccc(N2CCOCC2)nc1
8. O=C(Cc1cccnc1)N[C@@H](Cc1cccc(C(=O)O)c1O)B(O)O.O=CO [Example 59, formate salt]

A:
1. 10 to 100 nM
2. 10 to 100 nM
3. 100 to 1000 nM
4. < 10 nM
5. < 10 nM
6. 10 to 100 nM
7. 100 to 1000 nM
8. < 10 nM

Dear colleague, could you please provide IC50 for the compounds listed below?
1. O=C(O)c1cccc(C[C@H](NC(=O)[C@@H]2CCCN2)B(O)O)c1O.O=CO
2. NCC(=O)N[C@@H](Cc1cccc(C(=O)O)c1O)B(O)O.O=CO [Example 41, formate salt]
3. COc1ccc(C(=O)N[C@@H](Cc2cccc(C(=O)O)c2O)B(O)O)cc1
4. O=C(O)c1cccc(C[C@H](NC(=O)c2c(Cl)cccc2Cl)B(O)O)c1O
5. O=C(N[C@@H](Cc1cccc(C(=O)O)c1O)B(O)O)c1ccc(Cl)nc1
6. O=C(CNC(=O)c1ccccc1)N[C@@H](Cc1cccc(C(=O)O)c1O)B(O)O
7. O=C(N[C@@H](Cc1cccc(C(=O)O)c1O)B(O)O)c1cnccn1

A:
> 1000 nM
> 1000 nM
100 to 1000 nM
> 1000 nM
< 10 nM
< 10 nM
10 to 100 nM
